pIC50: −log10 of the molar value.
Data export: pIC50 values recorded with PIK3CB (Human) (UniProt P42338).
Sequence (P42338 whole entry, looked up): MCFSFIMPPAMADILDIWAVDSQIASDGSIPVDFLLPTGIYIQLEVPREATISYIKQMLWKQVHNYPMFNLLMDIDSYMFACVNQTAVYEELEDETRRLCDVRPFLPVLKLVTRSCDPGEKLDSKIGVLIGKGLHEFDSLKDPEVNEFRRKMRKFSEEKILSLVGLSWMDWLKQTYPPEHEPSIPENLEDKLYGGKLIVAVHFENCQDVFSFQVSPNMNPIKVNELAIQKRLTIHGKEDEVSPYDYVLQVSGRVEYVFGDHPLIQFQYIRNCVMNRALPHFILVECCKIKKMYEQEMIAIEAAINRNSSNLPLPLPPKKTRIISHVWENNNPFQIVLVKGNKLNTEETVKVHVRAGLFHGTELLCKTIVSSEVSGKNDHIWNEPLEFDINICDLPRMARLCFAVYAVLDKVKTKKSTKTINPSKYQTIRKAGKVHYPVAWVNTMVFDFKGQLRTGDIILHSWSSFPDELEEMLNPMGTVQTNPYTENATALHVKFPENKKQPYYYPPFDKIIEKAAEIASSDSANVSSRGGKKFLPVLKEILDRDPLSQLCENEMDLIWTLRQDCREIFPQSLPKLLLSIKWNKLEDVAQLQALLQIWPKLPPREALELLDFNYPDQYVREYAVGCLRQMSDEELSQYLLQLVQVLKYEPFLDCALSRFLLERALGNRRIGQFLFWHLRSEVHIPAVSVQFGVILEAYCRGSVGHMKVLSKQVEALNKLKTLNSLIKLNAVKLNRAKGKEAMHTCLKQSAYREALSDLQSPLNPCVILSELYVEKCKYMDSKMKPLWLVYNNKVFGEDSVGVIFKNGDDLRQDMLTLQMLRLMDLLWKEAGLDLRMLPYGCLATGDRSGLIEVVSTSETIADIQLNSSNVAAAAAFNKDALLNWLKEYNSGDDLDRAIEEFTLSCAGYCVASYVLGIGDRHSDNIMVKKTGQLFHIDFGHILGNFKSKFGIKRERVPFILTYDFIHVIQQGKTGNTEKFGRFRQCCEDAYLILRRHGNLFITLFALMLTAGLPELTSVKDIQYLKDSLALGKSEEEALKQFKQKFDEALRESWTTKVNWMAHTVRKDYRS

What value of measured pIC50 is listed for Cc1cccc2cc(C(C)Nc3ncnc4[nH]cnc34)n(-c3ccc(F)cc3)c(=O)c12 (stereo not given) ?
6.00 to 7.00

Item: CCc1ccccc1-n1c(Cn2nc(-c3cc(O)cc(F)c3)c3c(N)ncnc32)cc2cccc(C)c2c1=O
6.00 to 7.00

Item: Cc1ccccc1-n1c(Cn2nc(-c3ccc4nc(N)ncc4c3)c3c(N)ncnc32)cc2cccc(C)c2c1=O
6.00 to 7.00

----------
Data export: IC50 values recorded with PIK3CB (Human) (UniProt P42338).

Consider the following illustrative entries.
compound	reported_result
Cc1cccc2cc(C(C)Nc3nc(N)nc4[nH]cnc34)n(-c3ccccc3)c(=O)c12 (centres undefined)	< 100 nM
Cc1cccc2cc([C@H](C)Nc3ncnc4[nH]cc(Br)c34)n(-c3ccccc3)c(=O)c12	< 100 nM
Cc1ccccc1-n1c(Cn2nc(C#CCO)c3c(N)ncnc32)cc2cccc(C)c2c1=O	> 10000 nM
Cc1ccncc1-n1c(Cn2nc(I)c3c(N)ncnc32)cc2cccc(C)c2c1=O	> 10000 nM
Cc1ccccc1-n1c(Cn2nc(-c3ccc(F)c(O)c3)c3c(N)ncnc32)cc2cccc(F)c2c1=O	> 10000 nM
Cc1cccc2cc(Cn3nc(-c4cccc(O)c4)c4c(N)ncnc43)n(C3CC3)c(=O)c12	100 to 1000 nM
Cc1cccc2cc([C@H](C)Nc3nc(N)ncc3Cl)n(C3CC3)c(=O)c12	100 to 1000 nM
Cc1cccc2cc([C@H](C)Nc3ncc(C(F)(F)F)c(N)n3)n(-c3ccccc3)c(=O)c12	> 10000 nM

What value of measured IC50 is listed for Cc1cccc2cc(C(C)Nc3ncnc4[nH]cnc34)n(C3CCN(C)CC3)c(=O)c12 (centres undefined) ?
100 to 1000 nM
